system.name: hMPV F protein on hMPV/A virus (human metapneumovirus, subtype A, UniProt Q6WB98 19-539)
Sequence (Q6WB98 19-539): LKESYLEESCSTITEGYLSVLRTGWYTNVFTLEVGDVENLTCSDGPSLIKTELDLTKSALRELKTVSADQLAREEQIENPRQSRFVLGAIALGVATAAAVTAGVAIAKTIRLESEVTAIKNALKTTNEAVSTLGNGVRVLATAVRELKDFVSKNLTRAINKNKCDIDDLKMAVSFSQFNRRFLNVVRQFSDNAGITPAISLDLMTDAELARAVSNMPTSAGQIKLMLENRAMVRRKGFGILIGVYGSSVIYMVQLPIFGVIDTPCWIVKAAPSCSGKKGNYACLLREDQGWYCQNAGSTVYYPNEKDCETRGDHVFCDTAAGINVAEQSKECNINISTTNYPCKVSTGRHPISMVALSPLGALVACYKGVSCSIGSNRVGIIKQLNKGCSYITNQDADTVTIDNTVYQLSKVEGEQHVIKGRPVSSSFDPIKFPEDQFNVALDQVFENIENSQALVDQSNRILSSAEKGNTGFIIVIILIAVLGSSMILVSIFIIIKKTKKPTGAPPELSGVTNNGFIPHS
assay.explanation: cell-based or functional assay

binder	display.unit	IC50, final serum dilution
13E10 (mouse) (antibody, V domains shown, Mouse IgG1 / kappa; also called 13E10 mIgG) VH: EVKLVESGGGLVQPGGSLSLSCAASGFTFTDYYMNWVRQPPGKALEWLGFIRNKDNGYTTEYSASVKGRFTISRDNSQSILYLQMNALRAEDSATYYCTRYYFGYDGDYFDYWGQGTTLTVSS VL: EIVLTQSPTTMAASPGEKITITCSASSSISSNYLHWYQQKAGFSPKLLIYRTSNLASGVPARFSGSGSGTSYSLTIGTMEAEDVATYYCQQGSSLPRTFGGGTKLEIK	µg/mL	0.195
